The reader will find reported fold induction at 0.5 µM values listed item by item below.
- Tested on: Par-4 secretion from mouse fibroblasts
- experimental_details: Par-4 secretion into conditioned medium, quantitative Western blot normalised to CollA1
- Type: cell-based
- stated_conditions: Mus musculus, Fibroblast, 24 h; 500 nM; Table 1; read-out: Ratio of Par-4 Secretion by Arylquin 1 Relative to Vehicle

- compound: "CN(C)c1ccc2cc(-c3ccc(F)cc3F)c(N)nc2c1 [Arylquin 1j]"
  fold induction at 0.5 µM: 2.7
- compound: "CN(C)c1ccc2cc(-c3c(F)cccc3F)c(N)nc2c1 [Arylquin 1m]"
  fold induction at 0.5 µM: 1.5
- compound: "CN(C)c1ccc2cc(-c3cccc(F)c3F)c(N)nc2c1 [Arylquin 1h]"
  fold induction at 0.5 µM: 3.1
- compound: "CN(C)c1ccc2cc(-c3cccc(Cl)c3)c(N)nc2c1 [Arylquin 1e]"
  fold induction at 0.5 µM: 2.6
- compound: "CN(C)c1ccc2cc(-c3cc(F)ccc3F)c(N)nc2c1 [Arylquin 1k]"
  fold induction at 0.5 µM: 2.9
- compound: "CN(C)c1ccc2cc(-c3ccc(F)c(F)c3)c(N)nc2c1 [Arylquin 1n]"
  fold induction at 0.5 µM: 2

* * *

- Tested on: Par-4 secretion from mouse fibroblasts
- experimental_details: Par-4 secretion into conditioned medium, quantitative Western blot normalised to CollA1
- Format: cell-based
- stated_conditions: 24 h, mouse fibroblasts, CM, Table 1
Binary call on Relative Levels of Par-4 Secretion by Arylquins Administered at 500 nM with cut-off 80: strictly below means 1 (yes), and equality or higher means 0 (no).

- smiles_str: "CN(C)c1ccc2cc(-c3cccc(F)c3)c(N)nc2c1"
  study_target: "Par-4 secretion from mouse fibroblasts"
  group_label: "1 (yes)"
- smiles_str: "CN(C)c1ccc2cc(-c3cccc(F)c3F)c(N)nc2c1"
  study_target: "Par-4 secretion from mouse fibroblasts"
  group_label: "0 (no)"
- smiles_str: "CN(C)c1ccc2cc(-c3c(F)cccc3F)c(N)nc2c1"
  study_target: "Par-4 secretion from mouse fibroblasts"
  group_label: "1 (yes)"
- smiles_str: "CN(C)c1ccc2cc(-c3cc(F)ccc3F)c(N)nc2c1"
  study_target: "Par-4 secretion from mouse fibroblasts"
  group_label: "0 (no)"
- smiles_str: "CN(C)c1ccc2cc(-c3ccc(F)c(F)c3)c(N)nc2c1"
  study_target: "Par-4 secretion from mouse fibroblasts"
  group_label: "1 (yes)"
- smiles_str: "CN(C)c1ccc2cc(-c3ccc(F)cc3)c(N)nc2c1"
  study_target: "Par-4 secretion from mouse fibroblasts"
  group_label: "1 (yes)"
- smiles_str: "CN(C)c1ccc2cc(-c3cc(F)cc(F)c3)c(N)nc2c1"
  study_target: "Par-4 secretion from mouse fibroblasts"
  group_label: "1 (yes)"
- smiles_str: "CN(C)c1ccc2cc(-c3ccccc3Br)c(N)nc2c1"
  study_target: "Par-4 secretion from mouse fibroblasts"
  group_label: "1 (yes)"

* * *

- System: Par-4 secretion from mouse fibroblasts
- experimental_details: Par-4 secretion into conditioned medium, quantitative Western blot normalised to CollA1
- Type: cell-based
- stated_conditions: 500 nM; Table 2
Each entry below lists one item and its recorded Ratio of Par-4 Secretion by Arylquin 1 Relative to Vehicle value.
measured_parameter: Ratio of Par-4 Secretion by Arylquin 1 Relative to Vehicle

- compound: "CN(C)c1ccc2cc(-c3ccccc3F)c(=O)[nH]c2c1"
  study_target: "Par-4 secretion from mouse fibroblasts"
  value_observed: 1.1
- compound: "CN(C)c1ccc2cc(-c3ccccc3F)c(=S)[nH]c2c1"
  study_target: "Par-4 secretion from mouse fibroblasts"
  value_observed: 1.7
- compound: "CN(C)c1ccc2cc(-c3ccccc3F)c(N3CCOCC3)nc2c1 [Arylquin 13a]"
  study_target: "Par-4 secretion from mouse fibroblasts"
  value_observed: 1.8
- compound: "Nc1nc2ccccc2cc1-c1ccccc1F [Arylquin 15a]"
  study_target: "Par-4 secretion from mouse fibroblasts"
  value_observed: 2.8

* * *

Entries annotated with measured melting point
measured_parameter: melting point

- compound: "CN(C)c1ccc2cc(-c3ccc(F)cc3F)c(N)nc2c1"
  measured_parameter: "melting point"
  value_observed: "174 to 175 °C"
- compound: "CN(C)c1ccc2cc3c(nc2c1)[nH]c(=O)c1ccccc13"
  measured_parameter: "melting point"
  value_observed: "> 250 °C"
- compound: "Nc1nc2cccc(Br)c2cc1-c1ccccc1F [Arylquin 15d]"
  measured_parameter: "melting point"
  value_observed: "209 to 210 °C"
- compound: "CN(C)c1ccc2cc(-c3ccccc3Cl)c(N)nc2c1"
  measured_parameter: "melting point"
  value_observed: "147 to 148 °C"
- compound: "Nc1nc2cccc(F)c2cc1-c1ccccc1F [Arylquin 15b]"
  measured_parameter: "melting point"
  value_observed: "142 to 143 °C"
- compound: "CN(C)c1ccc2cc(-c3ccccc3Br)c(N)nc2c1"
  measured_parameter: "melting point"
  value_observed: "159 to 160 °C"
- compound: "CN(C)c1ccc2cc(-c3cc(F)cc(F)c3)c(N)nc2c1"
  measured_parameter: "melting point"
  value_observed: "160 to 162 °C"
- compound: "CN(C)c1ccc2cc(-c3ccc(Cl)cc3)c(N)nc2c1"
  measured_parameter: "melting point"
  value_observed: "169 to 170 °C"
- compound: "Nc1nc2cccc(Cl)c2cc1-c1ccccc1F [Arylquin 15c]"
  measured_parameter: "melting point"
  value_observed: "194 to 196 °C"
- compound: "CN(C)c1ccc2cc(-c3cccc(Cl)c3)c(N)nc2c1"
  measured_parameter: "melting point"
  value_observed: "144 to 145 °C"
- compound: "CN(C)c1ccc2cc(-c3c(F)cccc3F)c(N)nc2c1"
  measured_parameter: "melting point"
  value_observed: "148 to 150 °C"
- compound: "COc1ccc2cc(-c3ccccc3F)c(N)nc2c1 [Arylquin 15g]"
  measured_parameter: "melting point"
  value_observed: "114 to 116 °C"
- compound: "CN(C)c1ccc2cc(-c3ccc(F)c(F)c3)c(N)nc2c1"
  measured_parameter: "melting point"
  value_observed: "163 to 164 °C"
- compound: "CN(C)c1ccc2cc3c(nc(N)c4ccccc43)nc2c1"
  measured_parameter: "melting point"
  value_observed: "> 250 °C"
- compound: "Nc1nc2cc(Cl)ccc2cc1-c1ccccc1F [Arylquin 15f]"
  measured_parameter: "melting point"
  value_observed: "178 to 180 °C"
- compound: "Nc1nc2ccc(Cl)cc2cc1-c1ccccc1F [Arylquin 15e]"
  measured_parameter: "melting point"
  value_observed: "138 to 139 °C"

* * *

Record: IC50 reported on hERG potassium channel (Homo sapiens).
Sequence (Q12809 whole entry): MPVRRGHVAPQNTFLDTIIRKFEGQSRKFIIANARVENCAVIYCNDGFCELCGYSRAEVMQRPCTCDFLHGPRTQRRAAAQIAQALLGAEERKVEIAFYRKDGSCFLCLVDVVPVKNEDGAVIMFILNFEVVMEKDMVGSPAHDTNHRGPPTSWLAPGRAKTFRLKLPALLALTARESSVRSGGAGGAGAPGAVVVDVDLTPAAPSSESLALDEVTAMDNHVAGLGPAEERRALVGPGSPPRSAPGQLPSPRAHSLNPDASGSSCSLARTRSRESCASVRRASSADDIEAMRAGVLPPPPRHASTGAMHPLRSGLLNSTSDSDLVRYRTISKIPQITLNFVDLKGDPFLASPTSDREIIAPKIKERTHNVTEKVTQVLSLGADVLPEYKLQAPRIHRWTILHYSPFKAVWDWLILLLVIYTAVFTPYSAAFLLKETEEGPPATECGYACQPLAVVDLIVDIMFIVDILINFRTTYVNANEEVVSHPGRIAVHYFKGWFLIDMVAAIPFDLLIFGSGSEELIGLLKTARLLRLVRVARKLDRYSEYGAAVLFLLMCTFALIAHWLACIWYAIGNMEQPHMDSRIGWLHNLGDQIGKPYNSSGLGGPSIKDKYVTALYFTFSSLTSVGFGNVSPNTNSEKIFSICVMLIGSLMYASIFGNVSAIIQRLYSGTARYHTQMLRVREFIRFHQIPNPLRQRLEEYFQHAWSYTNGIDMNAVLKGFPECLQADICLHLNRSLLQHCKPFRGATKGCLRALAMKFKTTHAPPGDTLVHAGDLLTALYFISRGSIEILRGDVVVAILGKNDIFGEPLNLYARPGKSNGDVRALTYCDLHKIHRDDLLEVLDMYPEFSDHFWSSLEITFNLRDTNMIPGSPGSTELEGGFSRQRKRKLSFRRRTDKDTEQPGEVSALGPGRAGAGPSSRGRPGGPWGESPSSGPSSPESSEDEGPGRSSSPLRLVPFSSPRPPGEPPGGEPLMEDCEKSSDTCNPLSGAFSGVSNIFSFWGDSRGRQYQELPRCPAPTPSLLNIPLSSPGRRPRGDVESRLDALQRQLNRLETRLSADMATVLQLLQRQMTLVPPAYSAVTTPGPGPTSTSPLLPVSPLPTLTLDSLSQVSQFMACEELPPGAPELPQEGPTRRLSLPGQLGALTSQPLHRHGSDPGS
measured_parameter: IC50 (µM)

- compound: "CN(C)c1ccc2cc(-c3ccc(F)cc3)c(N)nc2c1"
  study_target: "hERG potassium channel (Homo sapiens)"
  measured_parameter: "IC50"
  censoring_sign: "="
  value_observed: 30.2
- compound: "CN(C)c1ccc2cc(-c3ccccc3F)c(N3CCOCC3)nc2c1 [Arylquin 13a]"
  study_target: "hERG potassium channel (Homo sapiens)"
  measured_parameter: "IC50"
  censoring_sign: "="
  value_observed: 23.3
- compound: "CN(C)c1ccc2cc(-c3cccc(F)c3)c(N)nc2c1"
  study_target: "hERG potassium channel (Homo sapiens)"
  measured_parameter: "IC50"
  censoring_sign: "="
  value_observed: 1.59
- compound: "Nc1nc2ccccc2cc1-c1ccccc1F [Arylquin 15a]"
  study_target: "hERG potassium channel (Homo sapiens)"
  measured_parameter: "IC50"
  censoring_sign: "="
  value_observed: 14.6
- compound: "CN(C)c1ccc2cc(-c3ccccc3F)c(=S)[nH]c2c1"
  study_target: "hERG potassium channel (Homo sapiens)"
  measured_parameter: "IC50"
  censoring_sign: ">"
  value_observed: 100

These measurements were taken from patent US20160332971A1.
